# Lookup of reported furin cleavage Z-score keyed by entry
- assayed.target: furin, P09958;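 note: purified furin at 1:10 enzyme:substrate in 50 mM HEPES pH 7.5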
- Sequence (P09958 whole entry): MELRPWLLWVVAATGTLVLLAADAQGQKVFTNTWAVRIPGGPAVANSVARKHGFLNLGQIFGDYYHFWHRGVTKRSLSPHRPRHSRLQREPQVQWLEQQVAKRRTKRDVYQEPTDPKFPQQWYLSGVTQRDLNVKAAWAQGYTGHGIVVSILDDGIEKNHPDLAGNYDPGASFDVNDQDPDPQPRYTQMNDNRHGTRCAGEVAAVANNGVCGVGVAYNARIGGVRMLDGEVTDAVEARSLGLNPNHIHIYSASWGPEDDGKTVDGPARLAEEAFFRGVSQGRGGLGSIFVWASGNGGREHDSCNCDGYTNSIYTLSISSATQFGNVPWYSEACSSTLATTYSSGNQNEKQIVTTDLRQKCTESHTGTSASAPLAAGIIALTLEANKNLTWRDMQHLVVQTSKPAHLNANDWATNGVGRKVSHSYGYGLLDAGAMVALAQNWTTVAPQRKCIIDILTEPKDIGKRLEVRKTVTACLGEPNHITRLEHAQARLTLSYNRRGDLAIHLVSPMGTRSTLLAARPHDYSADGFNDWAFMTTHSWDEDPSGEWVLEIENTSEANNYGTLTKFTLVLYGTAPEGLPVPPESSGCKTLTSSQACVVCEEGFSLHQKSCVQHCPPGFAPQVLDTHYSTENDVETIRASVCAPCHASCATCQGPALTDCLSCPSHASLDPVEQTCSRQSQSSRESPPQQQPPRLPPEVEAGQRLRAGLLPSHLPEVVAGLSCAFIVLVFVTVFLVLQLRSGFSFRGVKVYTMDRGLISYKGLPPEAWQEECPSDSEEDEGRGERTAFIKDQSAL
- protocol.description: furin cleavage Z-score vs untreated control; higher = more cleavage, active = 3.5 or more, inactive = 1 or less, 8 variable residues between constant flanks
- condition.set: 30 min
The other results are listed elsewhere or left out. The hit rate among all sequences tested is not known here.
reported.property: furin cleavage Z-score

{"columns": ["sequence.code", "reported.property", "observed.value"],
 "data": [
  ["CAQLFTFSPRAGNASASA [HC305]", "furin cleavage Z-score", 0.219],
  ["CAREQRDICEAGNASASA [FS-2658]", "furin cleavage Z-score", 0.297],
  ["CAREQRSNGLAGNASASA [FS-3245]", "furin cleavage Z-score", 1.43],
  ["CACGWAGWLLAGNASASA [HC206]", "furin cleavage Z-score", -0.0867]
]}

These entries and their values trace back to the supplement of paper PMC3545927.
